meta.source: patent US8022225B2

# Assayed target: human Edg-1(S1P1) (Homo sapiens, UniProt P21453)
# Construct: expressed in transfected cells; host or cells: HEK-293
# Sequence (P21453 whole entry): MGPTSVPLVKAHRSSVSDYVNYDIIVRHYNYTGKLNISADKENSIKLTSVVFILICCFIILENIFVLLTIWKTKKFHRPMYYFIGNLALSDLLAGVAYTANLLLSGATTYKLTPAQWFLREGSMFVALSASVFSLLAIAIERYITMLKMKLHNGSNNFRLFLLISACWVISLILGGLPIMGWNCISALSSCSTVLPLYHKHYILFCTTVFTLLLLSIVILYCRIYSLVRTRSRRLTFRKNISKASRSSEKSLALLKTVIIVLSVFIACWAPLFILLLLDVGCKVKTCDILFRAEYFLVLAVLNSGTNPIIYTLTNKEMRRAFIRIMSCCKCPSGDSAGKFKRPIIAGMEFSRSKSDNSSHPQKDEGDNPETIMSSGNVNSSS
# Test description: Membrane system binding test: inhibition of [33P]-S1P binding to the membrane fraction of Edg-1(S1P1) gene transferred HEK-293 cells
# Experimental conditions: 10 μM compound; [33P]-S1P 0.1 nM; membrane fraction of Edg-1(S1P1) gene transferred HEK-293 cells; read-out: Membrane system binding test % inhibition (10 μM)
# Experimental: The membrane fraction was obtained by treating the cells with a solubilizing buffer (1 mM Tris/HCl, pH 7.2) for 10 minutes on ice, centrifuging the system (1000×g, 5 min) to remove insoluble fractions, and then centrifuging the system (40000×g, 30 min, 4° C.). […] To the filter, 25 μL Microscint 0 (produced by Perkin-Elmer) was added, and the assay system was measured for radioactivity by means of Top Count NXT (Packard). […]
Hi there, I'd appreciate the recorded inhibition at 10 µM for every entry that follows.
Answers are plain numbers, in %.

[[record]]
molecule = "C=CCSc1nnc([C@@H](Cc2ccccc2)NS(=O)(=O)c2ccc(Cl)cc2)n1C(C)C"
val = 88.7


# per-item lookup of inhibition at 10 µM; items listed below
1. CCn1c(SCc2c(Cl)cccc2Cl)nnc1[C@@H](C)NS(=O)(=O)c1ccc(Cl)cc1
2. CCn1c(OC)nnc1[C@@H](C)NS(=O)(=O)c1cc2ccccc2o1
3. CCCSc1nnc([C@@H](C)NS(=O)(=O)c2ccc(Cl)cc2)n1CC
4. CCn1c(OC)nnc1[C@@H](C)NS(=O)(=O)c1ccc(Cl)cc1
5. CCn1c(SCC(=O)c2ccccc2)nnc1[C@@H](C)NS(=O)(=O)c1ccc(Cl)cc1
6. CCn1c(OCCN2CCOCC2)nnc1[C@@H](C)NS(=O)(=O)c1ccc(Cl)cc1
7. C=CCSc1nnc(C(CC)NS(=O)(=O)c2ccc(Cl)cc2)n1CC (stereo not shown)

Result:
1: 102; 2: 67; 3: 101; 4: 86.6; 5: 99.2; 6: 65.3; 7: 100

# per-item lookup of inhibition at 10 µM; items listed below
1. CCOc1nnc([C@@H](C)NS(=O)(=O)c2ccc(F)c(Cl)c2)n1CC
2. CCn1c(SCC2CCCCCCC2)nnc1[C@@H](C)NS(=O)(=O)c1ccc(Cl)cc1
3. CCn1c(OCCCN(C)C)nnc1[C@@H](C)NS(=O)(=O)c1ccc(Cl)cc1
4. CCn1c(SCCCc2ccccc2)nnc1[C@@H](C)NS(=O)(=O)c1ccc(Cl)cc1
5. CCn1c(SCCC23CC4CC(CC(C4)C2)C3)nnc1[C@@H](C)NS(=O)(=O)c1ccc(Cl)cc1
6. CCn1c(OC)nnc1[C@@H](C)NS(=O)(=O)CCCCl
7. CCn1c(OC)nnc1[C@@H](C)NS(=O)(=O)c1ccc(F)c(C(F)(F)F)c1

Result:
1: 81.9; 2: 87.7; 3: 46.3; 4: 86.7; 5: 110; 6: 46.6; 7: 99.7

# per-item lookup of inhibition at 10 µM; items listed below
1. CCn1c(OC)nnc1[C@@H](C)NS(=O)(=O)c1ccc(Br)c(F)c1
2. CCn1c(SCCCC(F)(F)F)nnc1[C@@H](C)NS(=O)(=O)c1ccc(Cl)cc1
3. CCn1c(OC)nnc1[C@@H](C)NS(=O)(=O)c1c(F)c(F)c(F)c(F)c1F
4. CCn1c(OC)nnc1[C@@H](C)NS(=O)(=O)c1ccc(NC(C)=O)cc1

Result:
1: 95.8; 2: 79.4; 3: 52.5; 4: 60.9

# per-item lookup of inhibition at 10 µM; items listed below
1. CCn1c(SC(C)c2ccccc2)nnc1[C@@H](C)NS(=O)(=O)c1ccc(Cl)cc1 (stereo partly shown)
2. CCn1c(OCCCC(F)(F)F)nnc1[C@@H](C)NS(=O)(=O)c1ccc(Cl)cc1
3. CCn1c(SCc2ccc([N+](=O)[O-])cc2)nnc1[C@@H](C)NS(=O)(=O)c1ccc(Cl)cc1
4. CCn1c(OC)nnc1[C@@H](C)NS(=O)(=O)c1ccc2ccccc2c1

Result:
1. 97.3
2. 92
3. 110
4. 102
